Recorded measurements of DC50, one per entry
Target Desc: KRAS-G12D (Homo sapiens, UniProt P01116, G12D)
Construct: endogenous in cells; host or cells: A-427 (ATCC), AGS, AsPc-1, Panc 04.03
Sequence (P01116 1-188 isoform P01116-2 G12D): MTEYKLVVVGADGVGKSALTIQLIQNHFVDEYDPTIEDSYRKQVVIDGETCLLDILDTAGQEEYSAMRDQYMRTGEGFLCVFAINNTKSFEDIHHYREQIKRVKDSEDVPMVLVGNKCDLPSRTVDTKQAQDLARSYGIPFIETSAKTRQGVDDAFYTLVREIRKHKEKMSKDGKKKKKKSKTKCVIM
Assay Text: KRAS-G12D degradation assay (Western Blot), AsPc-1 cells
Format: cell-based
Assay Context: 24 h
Description: The degradation effects of the compounds on KRAS-G12D were investigated on KRAS G12D mutant human lung cancer cell A-427 (ATCC), KRAS G12D mutant human gastric cancer cell AGS, KRAS G12D mutant human metastatic pancreatic cancer cell AsPc-1, and KRAS G12D mutant human pancreatic adenocarcinoma cell Panc 04.03. […]
// return numeric value only (unit: nM, not printed)

As a guide, the following entries are already answered.
{"Compound": "C#Cc1cccc2cc(O)cc(-c3ccc4c(N5CC6CCC(C5)N6)nc(OCC5(CN6CCN(CC7CCC8(CC7)CCN(C(=O)c7ccc(C)c(N9CCC(=O)NC9=O)c7)CC8)CC6)CC5)nc4c3F)c12", "Outcome Measure": "DC50", "Units": "nM", "Reported Result": 13.2}
{"Compound": "C#Cc1cccc2cc(O)cc(-c3ncc4c(N5CC6CCC(C5)N6)nc(OCC5(CN6CCN(CC7CCC8(CC7)CCN(C(=O)c7ccc(C)c(N9CCC(=O)NC9=O)c7)CC8)CC6)CC5)nc4c3F)c12", "Outcome Measure": "DC50", "Units": "nM", "Reported Result": 11.1}
{"Compound": "C#Cc1c(F)ccc2cc(O)cc(-c3ncc4c(N5CC6CCC(C5)N6)nc(OC[C@H](O)CN5CCN(CC6CCC7(CC6)CCN(C(=O)c6ccc(OC)c(N8CCC(=O)NC8=O)c6)CC7)CC5)nc4c3F)c12", "Outcome Measure": "DC50", "Units": "nM", "Reported Result": 149}
{"Compound": "[2H]C([2H])([2H])Oc1ccc(C(=O)N2CCC3(CCC(CN4CCN(C[C@@H](C)COc5nc(N6CC7CCC(C6)N7)c6cnc(-c7cc(O)cc8ccc(F)c(C#C)c78)c(F)c6n5)CC4)CC3)CC2)cc1N1CCC(=O)NC1=O", "Outcome Measure": "DC50", "Units": "nM", "Reported Result": 1.39}
{"Compound": "C#Cc1cccc2cc(O)cc(-c3ncc4c(N5CC6CCC(C5)N6)nc(OCC5(CN6CCN(CC7CCC8(CC7)CCN(C(=O)c7ccc(OC)c(N9CCC(=O)NC9=O)c7)CC8)CC6)CC5)nc4c3F)c12", "Outcome Measure": "DC50", "Units": "nM", "Reported Result": 12.6}

Lab note: next compound to report on.
Summary for this compound, C#Cc1c(F)ccc2cc(O)cc(-c3ncc4c(N5CC6CCC(C5)N6)nc(OCC(C)CN5CCN(CC6CCC7(CC6)CCN(C(=O)c6ccc(OC)c(N8CCC(=O)NC8=O)c6)CC7)CC5)nc4c3F)c12 (stereo not drawn) : DC50 is 0.71

----------
Recorded measurements of DC50, one per entry
Target Desc: KRAS-G12D (Homo sapiens, UniProt P01116, G12D)
Construct: endogenous in cells; host or cells: A-427 (ATCC), AGS, AsPc-1, Panc 04.03
Assay Text: KRAS-G12D degradation assay (Western Blot), A-427 cells
Format: cell-based
Assay Context: A427 cells, 24 h; numeric values
// return numeric value only (unit: nM, not printed)

{"Structure Notation": "C#Cc1c(F)ccc2cc(O)cc(-c3ccc4c(N5CC6CCC(C5)N6)nc(OCC5(CN6CCN(CC7CCC8(CC7)CCN(C(=O)c7ccc(Cl)c(N9CCC(=O)NC9=O)c7)CC8)CC6)CC5)nc4c3F)c12", "Target Desc": "KRAS-G12D (Homo sapiens, UniProt P01116, G12D)", "DC50 (nM)": 101}
{"Structure Notation": "CCc1cccc2cc(O)cc(-c3ccc4c(N5CC6CCC(C5)N6)nc(OCC5(CN6CCN(CC7CCC8(CC7)CCN(C(=O)c7ccc(Cl)c(N9CCC(=O)NC9=O)c7)CC8)CC6)CC5)nc4c3F)c12", "Target Desc": "KRAS-G12D (Homo sapiens, UniProt P01116, G12D)", "DC50 (nM)": 15.8}
{"Structure Notation": "CCc1c(F)ccc2cc(O)cc(-c3ccc4c(N5CC6CCC(C5)N6)nc(OCC5(CN6CCN(CC7CCC8(CC7)CCN(C(=O)c7ccc(Cl)c(N9CCC(=O)NC9=O)c7)CC8)CC6)CC5)nc4c3F)c12", "Target Desc": "KRAS-G12D (Homo sapiens, UniProt P01116, G12D)", "DC50 (nM)": 38.1}
{"Structure Notation": "C#Cc1cccc2cc(O)cc(-c3ccc4c(N5CC6CCC(C5)N6)nc(OCC5(CN6CCN(CC7CCC8(CC7)CCN(C(=O)c7ccc(OC)c(N9CCC(=O)NC9=O)c7)CC8)CC6)CC5)nc4c3F)c12", "Target Desc": "KRAS-G12D (Homo sapiens, UniProt P01116, G12D)", "DC50 (nM)": 1.74}

Lab note: next compound to report on.
Reported DC50 (KRAS-G12D (Homo sapiens, UniProt P01116, G12D)) for entry `CCc1c(F)ccc2cc(O)cc(-c3ccc4c(N5CC6CCC(C5)N6)nc(OCC5(CN6CCN(CC7CCC8(CC7)CCN(C(=O)c7ccc(OC)c(N9CCC(=O)NC9=O)c7)CC8)CC6)CC5)nc4c3F)c12` is 19.8
